Assay notes: Human umbilical cord blood cell cytotoxicity test
Type: cell-based
Test context: human, hUBC LC50, human umbilical cord blood cells, cell viability, mean ± SD (n = 3)
Measure name: CC50 at 24 h

I would be grateful if you could share the reported CC50 at 24 h for C=C1C(=O)O[C@H]2[C@H]1C[C@H](OC(C(=O)OCC)c1ccc(C(F)(F)F)cc1)/C(C)=C/CC[C@@]1(C)O[C@@H]21 (stereo partly drawn) [Compound 22a] .
> 5 µM

I would be grateful if you could share the reported CC50 at 24 h for C=C1C(=O)O[C@H]2[C@H]1CC/C(C)=C/CC[C@@]1(C)O[C@@H]21 [PTL, parthenolide, reference compound] .
> 20 µM

I would be grateful if you could share the reported CC50 at 24 h for C=C1C(=O)O[C@H]2[C@H]1C[C@H](OC(C(=O)OCc1ccccc1)c1ccccc1)/C(C)=C/CC[C@@]1(C)O[C@@H]21 (stereo partly drawn) [Compound 25a] .
> 5 µM

---

Tested on: human umbilical cord blood cells (hUBC)
Assay notes: Human umbilical cord blood cell cytotoxicity test
Format: cell-based
Test context: read-out: hUBC LC50; human umbilical cord blood cells, 24 h, cell viability, mean ± SD (n = 3)
I'd be grateful if you could share measured CC50 for these entries.

I would be grateful if you could share the reported CC50 for C=C1C(=O)O[C@@H]2[C@@H]1CC/C(COC(C(=O)OCC)c1ccc(C(F)(F)F)cc1)=C/CC[C@]1(C)O[C@H]21 (some centres unmarked) [Compound 23b] .
> 5 µM

I would be grateful if you could share the reported CC50 for C=C1C(=O)O[C@H]2[C@H]1C[C@H](OC(C(=O)OCc1ccccc1)c1ccccc1)/C(C)=C/CC[C@@]1(C)O[C@@H]21 (some centres unmarked) [Compound 25b] .
> 5 µM
